assay.system: GTPase KRas (Homo sapiens, UniProt P01116, G12C)
Sequence (P01116 whole entry G12C): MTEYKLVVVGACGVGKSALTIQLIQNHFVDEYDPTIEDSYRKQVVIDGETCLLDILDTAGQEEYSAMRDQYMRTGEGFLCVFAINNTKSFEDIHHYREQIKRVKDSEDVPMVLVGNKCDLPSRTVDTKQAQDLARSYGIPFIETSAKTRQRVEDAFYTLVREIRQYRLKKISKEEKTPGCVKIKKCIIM
test.description: Binding affinity to hexahistidine-tagged recombinant human KRas G12C mutant expressed in Escherichia coli BL21 (DE3) in presence of GDP
metric.name: Ki

>  <molecule>
C=CC(=O)N1CCN(c2ncnc3c(F)c(-c4c(O)cccc4F)c(Cl)cc23)CC1 (atropisomer S)

>  <assay.result>
> 64 µM

$$$$
